Test system: NCI-H23 lung
protocolText: NCI-60 one-dose screen, 48 h
conditionSummary: 10 µM unless noted
About 83,000 compounds went through this panel and 20% of them were active in at least one assay; those are over-represented in the sample as a whole. Calls of active or inactive are those of the source. The calls were made as follows: active = growth percent below 10; inactive = the rest.
Possible outcomes: TRUE (active), FALSE (inactive)

compound: Cc1ccc(C(=O)Cc2ccccc2)c(O)c1
testedOn: NCI-H23 lung
classification: FALSE
//
compound: Clc1ccc(C2=NN(c3ccc(Cl)cc3)C(c3cccc(Nc4ccnc5cc(Cl)ccc45)c3)C2)cc1 (stereo not given)
testedOn: NCI-H23 lung
classification: FALSE
//
compound: CCN(CC)CCCCCCCNc1c2ccc(Cl)cc2nc2ccc(OC)cc12
testedOn: NCI-H23 lung
classification: TRUE
//
compound: COc1ccc(CC(=O)Nc2nn3c(-c4cc(C(F)(F)F)cc(C(F)(F)F)c4)nnc3s2)cc1
testedOn: NCI-H23 lung
classification: FALSE
//
compound: COc1ccc(C2=NN(C(C)=O)C(c3cccc(Nc4ccnc5cc(Cl)ccc45)c3)C2)cc1 (stereo not given)
testedOn: NCI-H23 lung
classification: FALSE

###

Test system: NCI-H23 lung
protocolText: NCI-60 one-dose screen, 48 h
conditionSummary: 10 µM unless noted
About 83,000 compounds went through this panel and 20% of them were active in at least one assay; those are over-represented in the sample as a whole. Calls of active or inactive are those of the source. How the source made its calls: active means growth percent below 10; inactive means the rest.
Classes used: active, inactive

chemicalString: Cc1ccc2nc(SCC(=O)Nc3ccc(-c4nc5ccccc5s4)c(Cl)c3)[nH]c2c1
classification: inactive
//
chemicalString: CC(=O)c1ccccc1NC(=O)C(C)(c1ccccc1)c1ccccc1
classification: inactive
//
chemicalString: Nc1ccc2c(c1Br)Cc1ccccc1-2
classification: inactive
//
chemicalString: COc1ccc2ncccc2c1Cc1c(OC)ccc2ncccc12
classification: inactive
//
chemicalString: COc1ccc2c(c1)C(=Nc1cc(OC)c(OC)c(OC)c1)C(=O)N2
classification: inactive
//
chemicalString: CCNCCCn1c2c(c3ccc(F)cc3c1=O)C(=O)c1cc(OC)cnc1-2
classification: active
//
chemicalString: COc1ccc(-c2cc(-c3cccnc3)nc(S(=O)(=O)CC(=O)Nc3ccc(C)cc3)c2C#N)cc1OC
classification: inactive
//
chemicalString: CC(=O)[C@H]1CC[C@H]2[C@@H]3C[C@H](C)C4=CC(=O)CC[C@]4(C)[C@H]3C(=O)C[C@]12C
classification: inactive
//
chemicalString: CN1CCN(c2nc3scc(-c4ccccc4)c3c(=O)[nH]2)CC1
classification: inactive
//
chemicalString: Nc1nc(Nc2ccccc2SSc2ccccc2Nc2nc(N)nc(-c3cccc(Cl)c3)n2)nc(-c2cccc(Cl)c2)n1
classification: inactive

###

Tested on: UACC-257 melanoma
protocolText: NCI-60 one-dose screen, 48 h (100 = growth as untreated, 0 = no growth, -100 = all killed)
conditionSummary: 10 µM unless noted
Compounds without any hit were thinned out: in the full panel of roughly 83,000, 20% have a hit. Calls of active or inactive are those of the source. The calls were made as follows: active = growth percent below 10; inactive = the rest.
// values below are reported growth
readout: growth

molecule: COC(=O)[C@H](Cc1cn(C)cn1)NC(=O)[C@H](C)NC(=O)Nc1cc(C(F)(F)F)cc(C(F)(F)F)c1
result: -92.9% [100 µM] (active)

molecule: O=C(/C=C/c1ccc(C(F)(F)F)cc1)c1ccc(Nc2nc(NCCO)nc(NCCO)n2)cc1
result: 80.8% (inactive)

molecule: NC(=O)c1cc(Br)cc(Br)c1NS(=O)(=O)c1ccccc1
result: 131% (inactive)

molecule: N#Cc1c(-c2ccccc2)cc(-c2ccccc2)n(CC(=O)O)c1=O
result: 64.4% (inactive)

molecule: COc1ccc2c(c1)[n+](=O)c(C(=O)/C=C/c1cc(OC)c(OC)c(OC)c1)c(C)n2[O-]
result: 80.5% (inactive)

molecule: O=C(CNc1ccc2c(c1)C(=O)c1ccccc1C2=O)Nc1ccc2c(c1)C(=O)c1ccccc1C2=O
result: -90.3% (active)

molecule: COc1cc(C2CC(C3C(=O)N(C)C(=O)N(C)C3=O)=NN2c2cc(Cl)cc(Cl)c2)cc(OC)c1OC (centres undefined)
result: 74.2% (inactive)

molecule: O=Cc1ncc(-c2ccc(C(F)(F)F)cc2)c(NC2CCCCCC2)n1
result: -92% [100 µM] (active)

molecule: c1ccc(-c2n(Cc3ccc4ccccc4c3)cc[n+]2Cc2ccc3ccccc3c2)cc1
result: -57.1% (active)

###

Tested on: SNB-19 CNS
protocolText: NCI-60 one-dose screen, 48 h (100 = growth as untreated, 0 = no growth, -100 = all killed)
conditionSummary: 10 µM unless noted
The panel holds about 83,000 compounds, 20% with a hit somewhere; the sample as a whole holds those more often.

compound: CC(=O)c1ccccc1NC(=O)C(C)(c1ccccc1)c1ccccc1
growth / %: 97.1
//
compound: O=C(/C=C/c1cccc(Nc2ccnc3cc(Cl)ccc23)c1)c1ccc(Cl)cc1
growth / %: 63.2
//
compound: COc1ccc(-c2cc(-c3cccnc3)nc3sc(C(=O)Nc4ccccc4)c(N)c23)cc1OC
growth / %: 79.8
//
compound: CC1(C)CC2(C)CC(=O)C1C(C(=O)O)C2C(=O)O (stereo not given)
growth / %: 113
//
compound: COC(=O)c1c(NC(=O)CSc2nnnn2-c2ccc(OC)cc2)sc(C)c1C
growth / %: 102

###

System: ACHN renal
protocolText: NCI-60 one-dose screen, 48 h
conditionSummary: 10 µM unless noted
Compounds without any hit were thinned out: in the full panel of roughly 83,000, 20% have a hit. Active and inactive are the calls of the source. How the source made its calls: active means growth percent below 10; inactive means the rest.
Possible outcomes: TRUE (active), FALSE (inactive)

compound: O=[N+]([O-])c1ccc(NS(=O)(=O)c2ccc(Cl)c(Cl)c2)cc1
classification: FALSE
--
compound: O=C1C(=O)/C(=C/c2ccccc2)CCCCCC/C1=C/c1ccccc1
classification: FALSE
--
compound: CCCCN=C(N)c1ccc(OCCSCCOc2ccc(C(N)=NCCCC)cc2)cc1
classification: FALSE
--
compound: COc1ccc2c(c1)sc1nc(-c3ccc(Br)cc3)cn12
classification: FALSE
--
compound: N#CSCC1CC(O)(c2ccccc2)C(c2ccccc2)C(c2ccc(Cl)cc2)O1 (stereo not given)
classification: TRUE
--
compound: OC(c1cc(-c2cccc(Cl)c2)nc2ccccc12)C1CCCCN1 (stereo not given)
classification: TRUE
--
compound: Cc1cc(C)c(C(=O)c2cccs2)c(C)c1
classification: FALSE
--
compound: Cc1ccc(C(=O)Cc2ccccc2)c(O)c1
classification: FALSE
--
compound: COc1cc(OC)c2c(c1Cl)O[C@]1(C2=O)C(OCc2ccccc2)=CC(=O)C[C@H]1C
classification: TRUE
--
compound: COC(=O)[C@H]1[C@H]2C[C@@H]3c4[nH]c5cc(OC)ccc5c4CCN3C[C@H]2C[C@@H](OC(=O)/C=C/c2cc(OC)c(OC)c(OC)c2)[C@@H]1OC
classification: FALSE

###

System: PC-3 prostate
protocolText: NCI-60 one-dose screen, 48 h
conditionSummary: 10 µM unless noted
The panel holds about 83,000 compounds, 20% with a hit somewhere; the sample as a whole holds those more often. Activity calls are given as the source filed them. The calls were made as follows: active = growth percent below 10; inactive = the rest.
Outcomes: active, inactive

compound: COc1ccc(C2=NN(C(N)=S)C(c3ccc4c(c3)OCO4)C2)cc1 (stereo unspecified)
classification: inactive
//
compound: c1ccc(-c2oc(-c3ccccc3)c3ccccc23)cc1
classification: inactive
//
compound: c1ccc(CN=C(NCc2ccccc2)NCc2ccccc2)cc1
classification: inactive
//
compound: Cc1cc(C)cc(S(=O)(=O)n2ccc(-c3ccc4c(c3)CCC(C)(C)O4)n2)c1
classification: inactive
//
compound: CCN(CC)CCNCC(=O)Oc1ccc(/C=C/C(=O)CC(=O)/C=C/c2ccc(OC(=O)CNCCN(CC)CC)c(OC)c2)cc1OC
classification: inactive
//
compound: OCc1n(Cc2ccc3ccccc3c2)cc[n+]1Cc1ccc2ccccc2c1
classification: inactive
//
compound: Cc1ccc2nc3c(n2c1)C(=O)C(=O)c1ccccc1-3
classification: active
//
compound: N#Cc1ccc(-c2csc(Nc3ccc4nc5n(c(=O)c4c3)CCC5)n2)cc1
classification: inactive
//
compound: Cc1ccc(/C=C/C(=O)c2ccc(F)cc2)s1
classification: inactive
//
compound: CCN(CC)CCSc1ncnc2c1cnn2-c1ccc(S(N)(=O)=O)cc1
classification: inactive
//
compound: COc1ccc(NS(=O)(=O)N2CCCCC2)cc1
classification: inactive
//
compound: COc1cc(/C=N/OC(=O)Nc2ccccc2)cc(OC)c1OC
classification: inactive
//
compound: Nc1nc(Nc2ccccc2SSc2ccccc2Nc2nc(N)nc(-c3cccc(Cl)c3)n2)nc(-c2cccc(Cl)c2)n1
classification: inactive
//
compound: C[C@H]1c2cccc(O)c2C(O)=C2C(=O)[C@]3(O)C(O)=C(C(N)=O)C(=O)[C@@H](N(C)C)[C@@H]3[C@@H](O)[C@@H]21
classification: inactive
//
compound: Cn1ccnc1C(=O)/C=C/c1ccc(C(=O)Nc2nc3ccccc3[nH]2)cc1
classification: inactive
//
compound: O=C(CNC(=O)c1cccc2ccccc12)Nc1ccccc1Oc1ccc(O)cc1
classification: inactive
//
compound: Oc1ccc(/C=N/Nc2nc3ccccc3s2)c(O)c1
classification: inactive
//
compound: COc1ccc(-c2ccc(O)c(C(=O)/C=C/c3cc(OC)c(OC)c(OC)c3)c2)cc1
classification: inactive
//
compound: O=C1/C(=C/c2cccc(Cl)c2)CCc2ccccc21
classification: inactive
//
compound: CCCn1c(N)c(C(=O)CNc2ccc(I)cc2)c(=O)[nH]c1=O
classification: inactive
//
compound: COc1cc(Cl)cc(-c2nn(-c3cccc(NC(=O)c4cc(C(F)(F)F)cc(C(F)(F)F)c4)c3)cc2-c2ccncc2)c1
classification: inactive
